target: T1, A199 N-terminal neo-epitope peptide AGQPLQE-Acp-C (SEQ ID NO:55) conjugated to BSA (human, not fully specified (residue 9); printed as AGQPLQE-Acp-C; also: C-terminal Cys conjugated to BSA carrier); assay: direct ELISA after limiting dilution
T1 construct: BSA carrier
T1 peptide: AGQPLQE[Ahx]C
Non-standard residues stand in square brackets, D forms with d. No end group written: not given here. Ahx = NCCCCCC(=O)O

binder	binding result
67G3, monoclonal anti-A199 antibody (antibody, IgG2b, V domains shown) VH: QVQLQQPGTELVKPGASVKLSCKASGYTFTRYWLHWVKQRPGQGLEWIGNINPTNGGANYNEKFKNKATLTVDKSSSTAYMQLSSLTSEDSAVYYCSRGAYDYDCDYWGQGTTLTVSS VL: DVLMTQTPLSLPVSLGDQASISCRSSQRIVHSNGNIYLQWYLQKPGQSPKLLIYKVSNRFSGVPDRFSGSGSGTDFTLKISRVEAEDLGVYYCFQGSHVPYTFGGGTKLEIK	binds
36A12, monoclonal anti-A199 antibody (antibody, IgG1, V domains shown) VH: EVKLEESGGGLVQPGGSMKLSCVASGFTFSNYWMNWVRQSPEKGLEWIGEIKLKSNNYGTHYAESVKGRFTISRDDSKSSVYLQMNNLRAEDTGIYYCTRDTEVVAGAHWGQGTLVTVSA VL: NIMMTQSPSSLAVSAGEKVTMSCKSSQSVLYNSNQKNYLAWYQQKPGQSPKLLIYWASTRDSGVPDRFTGSGSGTDFTLTISSVRAEDLAVYFCQQYLSSLTFGAGTKLELK	binds
63F6, monoclonal anti-A199 antibody (antibody, IgG2b, V domains shown) VH: QVQLQQPGTELVKPGASVKLSCKASGYTFTNYWMHWVKQRPGQGLEWIGNINPRNGGTNYNEKFKSKATLTVDKSSSTDYMQLSSLTSEDSAVYYCARGLYDYDFDYWGQGTTLTVSS VL: DVLMTQTPLSLPVSLGDQASISCRSSQSIVHGNGNTYLQWFLQKPGQSPKLLIYKVSSRFSGVPDRFSGSGSGTDFTLKISRVEAEDLGVYYCFQGSHVPFTFGSGTKLEIK	binds

This collection of values is drawn from patent US20220242939A1.
